species: Rattus norvegicus; test: Open TG-GATES - Regimen: Daily Repeat; assay type: toxicity, organism-based, Sprague-Dawley; parameters: regimen Daily Repeat, gender Male, age 6 weeks; conditions: in vivo, po, 0 mg/kg, 72 h, tissue Blood, route gavage, dose level Control, time 3 day
List of MCHC values.
API: value field is a number in %; no unit string.

COMPOUND: Cc1cccc(C)c1OCC(C)N (centres undefined)
MCHC (%): 32.1
//
COMPOUND: O=C1CN(/N=C/c2ccc([N+](=O)[O-])o2)C(=O)N1
MCHC (%): 35.1
//
COMPOUND: C[C@H]1O[C@H](O[C@H]2[C@H](O)[C@@H](O)[C@@H](O[C@H]3[C@H](O)[C@@H](O)C(O)O[C@@H]3CO)O[C@@H]2CO)[C@H](O)[C@@H](O)[C@@H]1N[C@H]1C=C(CO)[C@@H](O)[C@H](O)[C@H]1O (some centres undefined)
MCHC (%): 33.1

Could you now look at the following compound, please?
Lab book: MCHC of CCOC(=O)C(C)(C)Oc1ccc(Cl)cc1 [CLOFIBRATE] noted as 34.9

====

species on record: Rattus norvegicus; experiment: Open TG-GATES - Regimen: Single; format: toxicity, organism-based, Sprague-Dawley; set-up: regimen Single, gender Male, age 6 weeks; settings: in vivo, po, 0 mg/kg, 3 h, tissue Plasma, route gavage, dose level Control
PROPERTY NAME: K (meq/L)
API: value field is a number in meq/L; no unit string.

Lab book: K of Cc1ccc2cc3c(ccc4ccccc43)c3c2c1CC3 noted as 3.9

Lab book: K of OCCN1CCN(CCCN2c3ccccc3Sc3ccc(C(F)(F)F)cc32)CC1 noted as 5.1

Lab book: K of C[C@H]1C(=O)O[C@@H]2CCN3CC=C(COC(=O)[C@](C)(O)[C@]1(C)O)[C@H]23 noted as 4

Lab book: K of C[C@H]1O[C@H](O[C@H]2[C@H](O)[C@@H](O)[C@@H](O[C@H]3[C@H](O)[C@@H](O)C(O)O[C@@H]3CO)O[C@@H]2CO)[C@H](O)[C@@H](O)[C@@H]1N[C@H]1C=C(CO)[C@@H](O)[C@H](O)[C@H]1O (some centres undefined) noted as 4

Lab book: K of Cn1cc[nH]c1=S noted as 4.1

====

species: Rattus norvegicus; test: Open TG-GATES - Regimen: Single; format: toxicity, organism-based, Sprague-Dawley; parameters: regimen Single, gender Male, age 6 weeks; details: in vivo, po, 0 mg/kg, 3 h, tissue Plasma, route gavage, dose level Control
List of Ca values.
API: value field is a number in mg/dL; no unit string.

Completed entries (count: 6):
MOLECULE: Cc1cccc(C)c1OCC(C)N (centres undefined) [MEXILETINE]
PROPERTY NAME: Ca
READOUT UNITS: mg/dL
OBSERVED RESULT: 10.6

MOLECULE: CCOC(=O)C(C)(C)Oc1ccc(Cl)cc1 [CLOFIBRATE]
PROPERTY NAME: Ca
READOUT UNITS: mg/dL
OBSERVED RESULT: 11

MOLECULE: C[C@H]1O[C@H](O[C@H]2[C@H](O)[C@@H](O)[C@@H](O[C@H]3[C@H](O)[C@@H](O)C(O)O[C@@H]3CO)O[C@@H]2CO)[C@H](O)[C@@H](O)[C@@H]1N[C@H]1C=C(CO)[C@@H](O)[C@H](O)[C@H]1O (some centres undefined) [ACARBOSE]
PROPERTY NAME: Ca
READOUT UNITS: mg/dL
OBSERVED RESULT: 10.7

MOLECULE: Cc1ccc2cc3c(ccc4ccccc43)c3c2c1CC3 [3-METHYLCHOLANTHRENE]
PROPERTY NAME: Ca
READOUT UNITS: mg/dL
OBSERVED RESULT: 10.7

MOLECULE: C[C@H]1C(=O)O[C@@H]2CCN3CC=C(COC(=O)[C@](C)(O)[C@]1(C)O)[C@H]23 [MONOCROTALINE]
PROPERTY NAME: Ca
READOUT UNITS: mg/dL
OBSERVED RESULT: 10.7

MOLECULE: C=C(C)[C@H]1Cc2c(ccc3c2O[C@@H]2COc4cc(OC)c(OC)cc4[C@@H]2C3=O)O1 [ROTENONE]
PROPERTY NAME: Ca
READOUT UNITS: mg/dL
OBSERVED RESULT: 11

Lab book: Ca of O=[N+]([O-])c1ccc(O)c([N+](=O)[O-])c1 [2,4-DINITROPHENOL] noted as 11.1

Lab book: Ca of OCCN1CCN(CCCN2c3ccccc3Sc3ccc(C(F)(F)F)cc32)CC1 [FLUPHENAZINE] noted as 10.9

Lab book: Ca of Cn1cc[nH]c1=S [METHIMAZOLE] noted as 10.6

====

species: Rattus norvegicus; assay: Open TG-GATES - Regimen: Single; assay type: toxicity, organism-based, Sprague-Dawley; design: regimen Single, gender Male, age 6 weeks; conditions: in vivo, po, 0 mg/kg, 3 h, tissue Plasma, route gavage, dose level Control
PROPERTY NAME: TC (mg/dL)
API: value field is a number in mg/dL; no unit string.

Completed entries (count: 3):
COMPOUND: C=C(C)[C@H]1Cc2c(ccc3c2O[C@@H]2COc4cc(OC)c(OC)cc4[C@@H]2C3=O)O1
TC / mg/dL: 82.8
//
COMPOUND: Cn1cc[nH]c1=S
TC / mg/dL: 84
//
COMPOUND: Cc1cccc(C)c1OCC(C)N (stereo unspecified)
TC / mg/dL: 77

Lab book: TC of CCOC(=O)C(C)(C)Oc1ccc(Cl)cc1 [CLOFIBRATE] noted as 79.8

Lab book: TC of OCCN1CCN(CCCN2c3ccccc3Sc3ccc(C(F)(F)F)cc32)CC1 noted as 85.8

Lab book: TC of Cc1ccc2cc3c(ccc4ccccc43)c3c2c1CC3 noted as 77.2

====

species: Rattus norvegicus; test: Open TG-GATES - Regimen: Single; format: toxicity, organism-based, Sprague-Dawley; set-up: regimen Single, gender Male, age 6 weeks; conditions: in vivo, po, 0 mg/kg, 9 h, route gavage, dose level Control
List of TERMINAL_BW values.
API: value field is a number in g; no unit string.

MOLECULE: Cn1cc[nH]c1=S [METHIMAZOLE]
READOUT UNITS: g
OBSERVED RESULT: 203.8

Lab book: TERMINAL_BW of C[C@H]1O[C@H](O[C@H]2[C@H](O)[C@@H](O)[C@@H](O[C@H]3[C@H](O)[C@@H](O)C(O)O[C@@H]3CO)O[C@@H]2CO)[C@H](O)[C@@H](O)[C@@H]1N[C@H]1C=C(CO)[C@@H](O)[C@H](O)[C@H]1O (some centres undefined) [ACARBOSE] noted as 198.4

Lab book: TERMINAL_BW of C=C(C)[C@H]1Cc2c(ccc3c2O[C@@H]2COc4cc(OC)c(OC)cc4[C@@H]2C3=O)O1 [ROTENONE] noted as 190.2

Lab book: TERMINAL_BW of Cc1cccc(C)c1OCC(C)N (centres undefined) [MEXILETINE] noted as 213.9

====

List of Eos values.
species: Rattus norvegicus; experiment: Open TG-GATES - Regimen: Daily Repeat; type: toxicity, organism-based, Sprague-Dawley; design: regimen Daily Repeat, gender Male, age 6 weeks; settings: in vivo, po, 0 mg/kg, […], tissue Blood, route gavage, dose level Control, time 28 day
Write the figure, then the unit, nothing else.

Lab book: Eos of OCCN1CCN(CCCN2c3ccccc3Sc3ccc(C(F)(F)F)cc32)CC1 [FLUPHENAZINE] noted as 1%

Lab book: Eos of C[C@H]1C(=O)O[C@@H]2CCN3CC=C(COC(=O)[C@](C)(O)[C@]1(C)O)[C@H]23 [MONOCROTALINE] noted as 1.2%

Lab book: Eos of C[C@H]1O[C@H](O[C@H]2[C@H](O)[C@@H](O)[C@@H](O[C@H]3[C@H](O)[C@@H](O)C(O)O[C@@H]3CO)O[C@@H]2CO)[C@H](O)[C@@H](O)[C@@H]1N[C@H]1C=C(CO)[C@@H](O)[C@H](O)[C@H]1O (some centres undefined) [ACARBOSE] noted as 1.6%

Lab book: Eos of Cn1cc[nH]c1=S [METHIMAZOLE] noted as 1%

Lab book: Eos of O=[N+]([O-])c1ccc(O)c([N+](=O)[O-])c1 [2,4-DINITROPHENOL] noted as 1%

Lab book: Eos of Cc1cccc(C)c1OCC(C)N (centres undefined) [MEXILETINE] noted as 1%

Lab book: Eos of CCOC(=O)C(C)(C)Oc1ccc(Cl)cc1 [CLOFIBRATE] noted as 1%

Lab book: Eos of O=C1CN(/N=C/c2ccc([N+](=O)[O-])o2)C(=O)N1 [NITROFURANTOIN] noted as 1%

Lab book: Eos of C=C(C)[C@H]1Cc2c(ccc3c2O[C@@H]2COc4cc(OC)c(OC)cc4[C@@H]2C3=O)O1 [ROTENONE] noted as 1%
